B1: TOR1AIP2 (parent)
chain: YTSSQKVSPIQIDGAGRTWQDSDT

Variants of: B1
Assay: protein stability index of a GFP-peptide fusion (GPS, HEK-293T) (PSI 1-6); higher = more stable;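 also: lentivirally expressed fusions sorted by FACS into six bins by GFP to DsRed ratio, PSI derived from sequencing read proportions per bin multiplied by bin number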
Settings: c terminus: a fixed tail appended
Below: a set of entries, each annotated with reported protein stability index.
Keep the answer to the number alone.

Known results for variants:
1) YTSSQKVSPIQIQGAGRTWQDSDT	3.27
2) YTSSQKYSPIQIDGAGRTWQDSDT	1.54
3) YTSSQKVSPFQIDGAGRTWQDSDT	1.85
4) YTSSQKVSPIQIKGAGRTWQDSDT	2.77
5) YTSSQKHSPIQIDGAGRTWQDSDT	3.58

[ask] Any idea what protein stability index was measured for YTSSQKVSPKQIDGAGRTWQDSDT ?
[reply] 3.33

[ask] Param item: YTSSQKVSPIQIDRAGRTWQDSDT
[reply] 1.95

[ask] Param item: YTSSQKVSPIQIDGAGRTWQDSDA
[reply] 3.08

[ask] Param item: YTSSQKVSPIQIDGAGRTWQKSDT
[reply] 3.46

[ask] Param item: ETSSQKVSPIQIDGAGRTWQDSDT
[reply] 5.31

[ask] Param item: YTSSQKVSPRQIDGAGRTWQDSDT
[reply] 3.76

[ask] Param item: YTSSQKVMPIQIDGAGRTWQDSDT
[reply] 3.06

[ask] Param item: YTSSQKVSPIQIDGAGKTWQDSDT
[reply] 3.54

[ask] Param item: YTSSQKLSPIQIDGAGRTWQDSDT
[reply] 3.12

[ask] Param item: YTSSQKESPIQIDGAGRTWQDSDT
[reply] 3.46

[ask] Param item: YTSSQKVSPIQIDGHGRTWQDSDT
[reply] 2.6

[ask] Param item: YTSSQKVSPIQIDGAGRNWQDSDT
[reply] 3.41

[ask] Param item: YTSSQKVAPIQIDGAGRTWQDSDT
[reply] 3.52

[ask] Param item: YTSSQKVSEIQIDGAGRTWQDSDT
[reply] 4.28

[ask] Param item: YTSSQKVSPIQIDGAGRTWQHSDT
[reply] 2.34

[ask] Param item: YTSSQKVSPIQIDGAGRTWQDIDT
[reply] 3.12

[ask] Param item: YTSSQKVSPIQIDGAGRTWQDKDT
[reply] 2.95

[ask] Param item: YTSSQKVSPIQIDGAGRTWQDPDT
[reply] 3.67

[ask] Param item: YTSSQKVNPIQIDGAGRTWQDSDT
[reply] 4
